Source: patent US20250129095A1

target: KRAS (G12C)::SOS1 (Homo sapiens, UniProt P01116, C118S/C51S/C80L/G12C); construct: KRAS (G12C) 1-169, N-terminal 6His-tag for purification, cleaved off; 6His-tag (N, cleaved yes); test: KRAS::SOS1 AlphaScreen binding assay, KRAS G12C; conditions: read-out: KRASG12C IC50
Sequence (P01116 1-169 isoform P01116-2 G12C/C51S/C80L/C118S): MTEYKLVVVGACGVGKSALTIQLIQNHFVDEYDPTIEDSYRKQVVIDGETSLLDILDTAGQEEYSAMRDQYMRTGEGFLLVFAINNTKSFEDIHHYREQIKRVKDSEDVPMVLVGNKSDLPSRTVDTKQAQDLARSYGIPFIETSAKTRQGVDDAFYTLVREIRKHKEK
y if IC50 is below 2 nM. n if not; exact matches included in n.

Query: Is the reported IC50 for C[C@H](Oc1cc(Oc2nccs2)nc(-c2onc3c2CCC[C@@]32CCCc3sc(N)c(C#N)c32)n1)[C@@H]1CCCN1C [Example I-1] strictly below 2 nM?
Result: y

Query: Report whether reported IC50 is lower than 2 nM (strictly) for C[C@H](Oc1cc(O[C@H]2CN(C)C(C)(C)C2)nc(-c2noc3c2CCC[C@@]32CCCc3sc(N)c(C#N)c32)n1)[C@@H]1CCCN1C [II-19]
Result: n

Query: Criterion: IC50 strictly below 2 nM. Is it met by C[C@H](Oc1cc(N[C@H]2CCOC2)nc(-c2onc3c2CCC[C@@]32CCCc3sc(N)c(C#N)c32)n1)[C@@H]1CCCN1C [Example I-4] ?
Result: n

Query: Hi there! Is IC50 for C[C@H](Oc1cc(Oc2cncnc2)nc(-c2noc3c2CCC[C@@]32CCCc3sc(N)c(C#N)c32)n1)[C@@H]1CCCN1C [II-1] below 2 nM, do you know?
Result: y

Query: hey, is IC50 for C[C@H](Oc1cc(OCC2(N(C)C)CC2)nc(-c2noc3c2CCC[C@@]32CCCc3sc(N)c(C#N)c32)n1)[C@@H]1CCCN1C [II-21] lower than 2 nM or not?
Result: n

====

Biological target: CYP3A4 (Homo sapiens)
Construct: from tissue; host or cells: human liver microsomes
Sequence (P08684 whole entry): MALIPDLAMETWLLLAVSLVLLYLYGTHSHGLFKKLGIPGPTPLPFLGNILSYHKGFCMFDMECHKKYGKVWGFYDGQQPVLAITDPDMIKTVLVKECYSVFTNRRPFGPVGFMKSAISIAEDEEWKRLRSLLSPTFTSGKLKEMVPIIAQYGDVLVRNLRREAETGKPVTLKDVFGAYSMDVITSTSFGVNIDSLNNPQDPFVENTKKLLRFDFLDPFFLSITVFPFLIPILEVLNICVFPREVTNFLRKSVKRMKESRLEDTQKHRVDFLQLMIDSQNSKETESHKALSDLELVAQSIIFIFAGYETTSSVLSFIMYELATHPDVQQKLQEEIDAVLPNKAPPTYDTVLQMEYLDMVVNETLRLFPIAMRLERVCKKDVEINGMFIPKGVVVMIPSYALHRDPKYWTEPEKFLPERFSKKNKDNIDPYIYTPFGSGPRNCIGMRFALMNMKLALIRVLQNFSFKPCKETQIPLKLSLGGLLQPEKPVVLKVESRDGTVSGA
Assay: Mechanism based inhibition of CYP3A4 assay (MBI 3A4)
Assay type: in vitro ADME
Settings: human liver microsomes, 25 uM, hydroxy-midazolam formation 30 min vs 0 min preincubation
Experimental: The time dependent inhibition towards CYP3A4 is assayed in human liver microsomes (0.02 mg/mL) with midazolam (15 μM) as a substrate. […] The main incubation is quenched with acetonitrile and the formation of hydroxy-midazolam is quantified via LC/MS-MS. The formation of hydroxy-midazolam from the 30 min preincubation relative to the formation from the 0 min preincubation is used as a readout. […]
observed property: MBI 3A4 [%] (%)
Please reply with the bare figure in % and do not write the unit itself.

# example entries with known answers
[[record]]
compound_smiles = "C[C@H](Oc1cc(O[C@H]2CCOC2)nc(-c2noc3c2CCC[C@@]32CCCc3sc(N)c(C#N)c32)n1)[C@@H]1CCCN1C"
study_target = "CYP3A4 (Homo sapiens)"
unit_of_measurement = "%"
val = 58

[[record]]
compound_smiles = "C[C@H](Oc1cc(OCC2(N(C)C)COC2)nc(-c2noc3c2CCC[C@@]32CCCc3sc(N)c(C#N)c32)n1)[C@@H]1CCCN1C"
study_target = "CYP3A4 (Homo sapiens)"
unit_of_measurement = "%"
val = 78

[[record]]
compound_smiles = "C[C@H](Oc1cc(Oc2nccs2)nc(-c2noc3c2CCC[C@@]32CCCc3sc(N)c(C#N)c32)n1)[C@@H]1CCCN1C"
study_target = "CYP3A4 (Homo sapiens)"
unit_of_measurement = "%"
val = 40


Query: Find MBI 3A4 [%] for C[C@H]1CN(C)CCCN1c1cc(O[C@@H]2CNC2(C)C)nc(-c2noc3c2CCC[C@@]32CCCc3sc(N)c(C#N)c32)n1 on CYP3A4 (Homo sapiens) and write it down.
Result: 65

====

Quick reference for efflux ratio at 90 min, 10 μM among some compounds
assay: Caco-2 assay; type: in vitro ADME; details: human; Caco-2 efflux ratio PappBA/PappAB; 10 μM test compound, pH 7.4; read-out: Caco ER
Write the number on its own, no unit after it.

[[record]]
compound = "C[C@H](Oc1cc(Nc2ccccn2)nc(-c2onc3c2CCC[C@@]32CCCc3sc(N)c(C#N)c32)n1)[C@@H]1CCCN1C [Example I-6]"
observed_property = "efflux ratio at 90 min, 10 μM"
val = 2.5

[[record]]
compound = "C[C@H](Oc1cc(OCC2(N(C)C)CC2)nc(-c2noc3c2CCC[C@@]32CCCc3sc(N)c(C#N)c32)n1)[C@@H]1CCCN1C [II-21]"
observed_property = "efflux ratio at 90 min, 10 μM"
val = 1.4


Query: Indicate the recorded efflux ratio at 90 min, 10 μM value for this compound: C[C@H](Oc1cc(N(C)CCN(C)C)nc(-c2noc3c2CCC[C@@]32CCCc3sc(N)c(C#N)c32)n1)[C@@H]1CCCN1C [II-20]
Result: 38

Query: Output efflux ratio at 90 min, 10 μM of C[C@H](Oc1cc(OCC2(N(C)C)COC2)nc(-c2noc3c2CCC[C@@]32CCCc3sc(N)c(C#N)c32)n1)[C@@H]1CCCN1C [II-22]
Result: 15.5

Query: Quote efflux ratio at 90 min, 10 μM reported for COC[C@H](C)Nc1cc(O[C@@H](C)[C@@H]2CCCN2C)nc(-c2onc3c2CCC[C@@]32CCCc3sc(N)c(C#N)c32)n1 [Example I-5] please.
Result: 7.7

Query: Please give measured efflux ratio at 90 min, 10 μM of the following entry: C[C@H](Oc1cc(O[C@@H]2CNC2(C)C)nc(-c2noc3c2CCC[C@@]32CCCc3sc(N)c(C#N)c32)n1)[C@@H]1C[C@@H](F)CN1C [II-31]
Result: 50.7

====

A collection of molecules and their measured solubility at 24 h
assay: Solubility measurement (DMSO solution precipitation method); format: physicochemical; details: aqueous buffer, kinetic from dmso stock; McIlvaine buffer pH 4.5, 24 h; read-out: Solubility [μg/ml] pH 4.5

Solved entries:
[[record]]
compound_smiles = "C[C@H](Oc1cc(OCC2(N(C)C)CC2)nc(-c2noc3c2CCC[C@@]32CCCc3sc(N)c(C#N)c32)n1)[C@@H]1CCCN1C"
observed_property = "solubility at 24 h"
val = "> 143 µg/mL"

[[record]]
compound_smiles = "C[C@H](Oc1cc(N(C)CCN(C)C)nc(-c2noc3c2CCC[C@@]32CCCc3sc(N)c(C#N)c32)n1)[C@@H]1CCCN1C"
observed_property = "solubility at 24 h"
val = "> 144 µg/mL"

[[record]]
compound_smiles = "C[C@H](Oc1cc(Nc2ncccn2)nc(-c2noc3c2CCC[C@@]32CCCc3sc(N)c(C#N)c32)n1)[C@@H]1CCCN1C"
observed_property = "solubility at 24 h"
val = "67 µg/mL"

[[record]]
compound_smiles = "C[C@H]1CN(C)CCCN1c1cc(O[C@@H]2CNC2(C)C)nc(-c2noc3c2CCC[C@@]32CCCc3sc(N)c(C#N)c32)n1"
observed_property = "solubility at 24 h"
val = "> 151 µg/mL"


Query: Provide one value: measured solubility at 24 h of C[C@H](Oc1cc(Oc2cccnc2)nc(-c2onc3c2CCC[C@@]32CCCc3sc(N)c(C#N)c32)n1)[C@@H]1CCCN1C
Result: > 125 µg/mL

Query: Please give the documented solubility at 24 h of C[C@H](Oc1cc(Nc2cnccn2)nc(-c2noc3c2CCC[C@@]32CCCc3sc(N)c(C#N)c32)n1)[C@@H]1CCCN1C
Result: 67 µg/mL

Query: Name the recorded solubility at 24 h of the item C[C@H](Oc1cc(OCCO)nc(-c2noc3c2CCC[C@@]32CCCc3sc(N)c(C#N)c32)n1)[C@@H]1CCCN1C in your answer.
Result: > 121 µg/mL

Query: Give the value of solubility at 24 h reported for the following: C[C@H](Oc1cc(Nc2ccccn2)nc(-c2onc3c2CCC[C@@]32CCCc3sc(N)c(C#N)c32)n1)[C@@H]1CCCN1C
Result: 23 µg/mL

Query: State its solubility at 24 h: C[C@H](Oc1cc(Oc2cnccn2)nc(-c2noc3c2CCC[C@@]32CCCc3sc(N)c(C#N)c32)n1)[C@@H]1CCCN1C
Result: > 118 µg/mL

====

Each item that follows carries a reported GI50.
target: KRAS G12D Ba/F3 (Homo sapiens, UniProt P01116, G12D, cells depend on it); experiment: Ba/F3 proliferation assay, KRAS G12D; type: cell-based; conditions: 72 h, AlamarBlue, read-out: KRAS G12D Ba/F3 IC50
Sequence (P01116 whole entry G12D): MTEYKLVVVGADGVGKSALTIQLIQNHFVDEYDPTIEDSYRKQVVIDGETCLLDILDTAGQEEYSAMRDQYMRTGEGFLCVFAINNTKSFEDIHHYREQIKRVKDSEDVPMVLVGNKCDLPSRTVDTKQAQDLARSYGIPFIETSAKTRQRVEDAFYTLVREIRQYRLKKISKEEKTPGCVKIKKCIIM
Include the unit after the number when you answer.

Worked examples follow.
[[record]]
compound = "C[C@H](Oc1cc(O[C@H]2CNC(C)(C)C2)nc(-c2noc3c2CCC[C@@]32CCCc3sc(N)c(C#N)c32)n1)[C@@H]1CCCN1C (single isomer, unassigned)"
val = "388 nM"

[[record]]
compound = "C[C@H](Oc1cc(Nc2ccccn2)nc(-c2onc3c2CCC[C@@]32CCCc3sc(N)c(C#N)c32)n1)[C@@H]1CCCN1C"
val = "47 nM"

[[record]]
compound = "C[C@H](Oc1cc(OCCO)nc(-c2noc3c2CCC[C@@]32CCCc3sc(N)c(C#N)c32)n1)[C@@H]1CCCN1C"
val = "16 nM"

[[record]]
compound = "CO[C@@H]1C[C@@H]([C@H](C)Oc2cc(O[C@@H]3CNC3(C)C)nc(-c3noc4c3CCC[C@@]43CCCc4sc(N)c(C#N)c43)n2)N(C)C1"
val = "5 nM"


Query: # lookup: KRAS G12D Ba/F3 (Homo sapiens, UniProt P01116, G12D, cells depend on it) GI50, key = COC[C@H](C)Nc1cc(O[C@@H](C)[C@@H]2CCCN2C)nc(-c2onc3c2CCC[C@@]32CCCc3sc(N)c(C#N)c32)n1
Result: 122 nM

Query: Under KRAS G12D Ba/F3 (Homo sapiens, UniProt P01116, G12D, cells depend on it): report GI50 of C[C@H](Oc1cc(Nc2cnccn2)nc(-c2noc3c2CCC[C@@]32CCCc3sc(N)c(C#N)c32)n1)[C@@H]1CCCN1C .
Result: 59 nM
